Target: Cathepsin K (Homo sapiens)
Assay: pKa value determined against cathepsin K from humanized rabbit enzyme
Settings: Oryctolagus cuniculus
List of pKa values.
READOUT_TYPE: pKa

compound="CC(C)C[C@H](NC(c1ccc(Br)cc1)C(F)(F)C(F)(F)F)C(=O)NCC#N (stereo partly specified)" assay_system="Cathepsin K (Homo sapiens)" result_value=1.8
compound="CC(C)C[C@H](NC(c1ccc(Br)cc1)c1ccc(S(C)(=O)=O)cc1)C(=O)NCC#N (stereo partly specified)" assay_system="Cathepsin K (Homo sapiens)" result_value=4.6
compound="CC(C)C[C@H](NC(C)c1ccc(Br)cc1)C(=O)NCC#N (stereo partly specified)" assay_system="Cathepsin K (Homo sapiens)" result_value=6.7
compound="CC(C)C[C@H](NC(c1ccc(Br)cc1)C(F)(F)F)C(=O)NCC#N (stereo partly specified)" assay_system="Cathepsin K (Homo sapiens)" result_value=1.3
compound="CC(C)C[C@H](NC(C#N)c1ccc(Br)cc1)C(=O)NCC#N (stereo partly specified)" assay_system="Cathepsin K (Homo sapiens)" result_value=0.7
compound=CC(C)C[C@H](NCc1ccc(Br)cc1)C(=O)NCC#N assay_system="Cathepsin K (Homo sapiens)" result_value=6.7

---

Molecular target: Procathepsin L (Homo sapiens, UniProt P07711)
Sequence (P07711 whole entry): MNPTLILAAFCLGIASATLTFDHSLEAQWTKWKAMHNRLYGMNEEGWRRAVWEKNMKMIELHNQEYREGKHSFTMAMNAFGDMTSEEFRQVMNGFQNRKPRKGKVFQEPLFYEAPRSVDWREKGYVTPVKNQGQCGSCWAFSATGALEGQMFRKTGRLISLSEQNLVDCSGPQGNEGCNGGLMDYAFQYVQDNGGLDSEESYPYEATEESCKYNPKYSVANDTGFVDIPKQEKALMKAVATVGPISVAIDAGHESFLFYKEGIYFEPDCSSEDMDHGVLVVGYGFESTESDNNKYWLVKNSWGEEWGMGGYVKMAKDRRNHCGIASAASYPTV
READOUT_TYPE: IC50 (nM)

compound=N#CCNC(=O)C1(NC(=O)c2ccc(-c3ccc(N4CCNCC4)cc3)cc2)CCCCC1 result_units=nM modifier_sign== result_value=2270
compound=CN1CCN(c2nc(-c3ccc(C(=O)NC4(C(=O)NCC#N)CCCCC4)cc3)cs2)CC1 result_units=nM modifier_sign== result_value=3900
compound="N#CCNC(=O)C1(NC(c2ccc(-c3ccc(N4CCNCC4)cc3)cc2)C(F)(F)F)CCCCC1 (stereo not given)" result_units=nM modifier_sign=> result_value=10000
compound="CC(C)C[C@H](NC(c1ccc(Br)cc1)C(F)(F)F)C(=O)NCC#N (stereo not given in full)" result_units=nM modifier_sign== result_value=34
compound=CC(C)C[C@H](N[C@@H](c1ccc(-c2ccc(N3CCNCC3)cc2)cc1)C(F)(F)F)C(=O)NCC#N result_units=nM modifier_sign== result_value=47

---

Target: UniProt:P43235
Sequence (P43235 whole entry): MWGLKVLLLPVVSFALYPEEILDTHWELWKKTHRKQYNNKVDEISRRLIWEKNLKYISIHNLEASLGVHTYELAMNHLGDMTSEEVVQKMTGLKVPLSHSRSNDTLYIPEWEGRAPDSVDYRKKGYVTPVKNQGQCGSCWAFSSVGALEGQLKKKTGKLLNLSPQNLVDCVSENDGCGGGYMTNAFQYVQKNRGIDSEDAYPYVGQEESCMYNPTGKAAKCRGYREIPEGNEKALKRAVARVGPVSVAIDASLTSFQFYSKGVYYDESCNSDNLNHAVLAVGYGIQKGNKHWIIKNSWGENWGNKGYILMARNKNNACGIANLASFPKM
Assay: Inhibitory activity against cathepsin K using humanized rabbit enzyme
Design: species or system Oryctolagus cuniculus
READOUT_TYPE: log10 of IC50 (log10 of the value in nM)

compound=CC(C)C[C@H](Nc1cscc1-c1ccc(N2CCNCC2)cc1)C(=O)NCC#N readout_type="log10 of IC50" result_value=0.00
compound="CC(C)C[C@H](NC(c1ccc(Br)cc1)c1ccc(S(C)(=O)=O)cc1)C(=O)NCC#N (some centres not stated)" readout_type="log10 of IC50" result_value=0.40
compound="CC(C)C[C@H](NC(C)c1ccc(Br)cc1)C(=O)NCC#N (some centres not stated)" readout_type="log10 of IC50" result_value=2.99
compound=CN1CCN(c2nc(-c3ccc(C(=O)NC4(C(=O)NCC#N)CCCCC4)cc3)cs2)CC1 readout_type="log10 of IC50" result_value=-0.22
compound="CC(C)C[C@H](NC(c1ccc(Br)cc1)C(F)(F)C(F)(F)F)C(=O)NCC#N (some centres not stated)" readout_type="log10 of IC50" result_value=0.38
compound="CC(C)CC(NC(c1ccc(-c2ccc(N3CCNCC3)cc2)cc1)C(F)(F)F)C(=O)NCC#N (configuration not stated)" readout_type="log10 of IC50" result_value=0.66
compound=CC(C)C[C@@H](C(=O)NCC#N)c1cccc(-c2ccc(N3CCNCC3)cc2)c1 readout_type="log10 of IC50" result_value=1.04
compound="CC(C)C[C@H](NC(c1ccc(Br)cc1)C(F)(F)F)C(=O)NCC#N (some centres not stated)" readout_type="log10 of IC50" result_value=0.11
compound=CC(C)C[C@H](NCc1ccc(Br)cc1)C(=O)NCC#N readout_type="log10 of IC50" result_value=2.90
compound="CC(C)C[C@H](NC(C#N)c1ccc(Br)cc1)C(=O)NCC#N (some centres not stated)" readout_type="log10 of IC50" result_value=1.48
compound=N#CCNC(=O)C1(NC(=O)c2ccc(-c3ccc(N4CCNCC4)cc3)cc2)CCCCC1 readout_type="log10 of IC50" result_value=-0.40
compound="N#CCNC(=O)C1(NC(c2ccc(-c3ccc(N4CCNCC4)cc3)cc2)C(F)(F)F)CCCCC1 (configuration not stated)" readout_type="log10 of IC50" result_value=0.70
